Taken from paper PMC3078936.

# system.tested: T1, LC8 dynein light chain DYNLL1 (residues 1-89) (human (from the printed UniProt …, UniProt P63167 1-89))
# T1 construct: DYNLL1, residues 1-89, UniProt P63167, cloned into pET-15b; The methods name thrombin removal of the His tag only for DYNLL2; also called DYNNL1; source: E. coli BL21(DE3)Star, purified (Ni IMAC, HiTrapQ anion exchange)
# test.method.notes: ITC; 15 µM DYNLL1 in the cell, 30-40 injections of 3-5 µl peptide; PBS with 3 mM 2-mercaptoethanol, pH 7.4; 299 K; A + B to AB model
# measurement.parameters: both partners purified
Ends that are not written are not given here.
measured.attribute: Kd
A complete answer gives the number followed by the unit.

Notebook: EML3 (8-94), recombinant fragment (domain or fragment, human, UniProt Q32P44 8-94, looked up, also called EMAP-3; source: recombinant) GDGPAREALQSLSQRLRVQEQEMELVKAALAEALRLLRLQVPPSSLQGSGTPAPPGDSLAAPPGLPPTCTPSLVSRGTQTETEVELK , Kd read as 50 nM

Notebook: Ac-SRGTQTE (phage-selected consensus without position -5; also called Ac-5 version of the in vitro evolved consensus; source: synthetic peptide) [Ac-SRGTQTE] , Kd read as 15200 nM

Notebook: Ac-VDKSTQTD (natural consensus extended by Val at position -5; also called Val-5 version of the natural consensus; source: synthetic peptide) [Ac-VDKSTQTD] , Kd read as 70 nM

Notebook: Ac-DKSTQTD (also called natural consensus; Ac-5 version of the natural consensus; source: synthetic peptide) [Ac-DKSTQTD, naturally evolved consensus peptide] , Kd read as 5600 nM

Notebook: Ac-GDKSTQTD (natural consensus extended by Gly at position -5; also called Gly-5 version of the natural consensus; source: synthetic peptide) [Ac-GDKSTQTD] , Kd read as 560 nM

Notebook: Ac-GSRGTQTE (phage-selected consensus with Gly at position -5; also called Gly-5 version of the in vitro evolved consensus; source: synthetic peptide) [Ac-GSRGTQTE] , Kd read as 1640 nM

Notebook: Ac-VSRGTQTE (also called phage selected consensus; source: synthetic peptide) [Ac-VSRGTQTE, in vitro evolved consensus peptide] , Kd read as 80 nM
